// data source = the RNAGym collection of RNA variant scans (doi:10.1038/s41586-018-0170-7)

B1: tRNA (parent)
chain: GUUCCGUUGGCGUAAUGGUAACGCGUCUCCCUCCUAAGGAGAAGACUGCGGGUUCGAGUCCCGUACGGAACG

Variants of: B1
Assay: yeast fitness, log relative to wild type (ln ratio); higher = fitter; tRNA-Arg(CCU), competitive growth, 37 C, 1 M NaCl
endpoint: yeast fitness (ln)
Lab note: jot down the number only; don't add units.

Use the examples below as a reference point.
Can you look up the measured yeast fitness (ln) of U2G G6A C27U C66U A69G C71U for me?
-0.409

Can you look up the measured yeast fitness (ln) of G1A G6A A69G A70G for me?
-0.104

Can you look up the measured yeast fitness (ln) of G1A G6A A70G C71U for me?
-0.115

Can you look up the measured yeast fitness (ln) of U2G G6A C27U C46U A70G C71U for me?
-0.207

Can you look up the measured yeast fitness (ln) of U2G G6A C27U C46U for me?
-0.0462

Can you look up the measured yeast fitness (ln) of G6U C27U A43C C46U C66U C71U for me?
-0.355

Can you look up the measured yeast fitness (ln) of U2C C27U C66A A70G for me?
-0.105

Can you look up the measured yeast fitness (ln) of U2G C66U A70U for me?
-0.00968

Further cases:
Can you look up the measured yeast fitness (ln) of C46U C66U A69G C71U for me?
-0.396
